- experimental system: Autotaxin (Homo sapiens)
- assay info: Inhibition of recombinant human C-terminal FLAg-tagged ATX lysophospholipase D activity expressed in baculovirus infected sf9 cells using FRET based FS-3 substrate measured every 2 mins for 1 hr by fluorescence assay
assay readout: IC50

See these solved cases before continuing.
smiles	assay readout	meas value
O=C(Nc1cc(F)c(F)c(F)c1)c1cc(NN2CCOCC2)c(Cl)cc1Cl	IC50	> 1000 nM
O=S(=O)(c1cc(CNc2ccc(F)c(F)c2)c(Cl)cc1Cl)N1CCOCC1	IC50	> 1000 nM
CS(=O)(=O)N(C(=O)c1cc(NN2CCOCC2)c(Cl)cc1Cl)c1cc(F)c(F)c(F)c1	IC50	> 1000 nM
O=S(=O)(c1cc(C(=S)Nc2cc(Cl)c(F)c(Cl)c2)c(Cl)cc1Cl)N1CCOCC1	IC50	98 nM
O=S(=O)(Nc1cc(F)c(F)c(F)c1)c1cc(S(=O)(=O)N2CCOCC2)c(Cl)cc1Cl	IC50	> 1000 nM
O=S(=O)(c1cc(-c2nc3cccc(F)c3o2)c(Cl)cc1Cl)N1CCOCC1	IC50	> 1000 nM

# next molecule below
Give recorded IC50. "O=C(Nc1cc(F)c(F)c(F)c1Br)c1cc(S(=O)(=O)N2CCOCC2)c(Cl)cc1Cl" 18 nM
